Test: physchem
Conditions: pH 7.4
readout.type: chromatographic logD
Numbers only.

Here are 8 compounds together with their reported answers.
>>> experimental_result("Cc1ncc([N+](=O)[O-])n1CCO")
0.12
>>> experimental_result("O=c1n(CCCN2CCN(c3cccc(Cl)c3)CC2)nc2ccccn12")
2.97
>>> experimental_result("C[C@]12CCC(=O)C=C1CC[C@@H]1[C@@H]2[C@@H](O)C[C@@]2(C)[C@H]1CC[C@]2(O)C(=O)CO [Hydrocortisone]")
1.49
>>> experimental_result("CN1C(=O)C(O)N=C(c2ccccc2Cl)c2cc(Cl)ccc21 (centres unmarked)")
2.77
>>> experimental_result("CC(C)N(CCC(C(N)=O)(c1ccccc1)c1ccccn1)C(C)C (centres unmarked) [Disopyramide]")
-1.15
>>> experimental_result("CN1CCN(CC(=O)N2c3ccccc3C(=O)Nc3cccnc32)CC1 [Pirenzepine]")
0.04
>>> experimental_result("CNC(=C[N+](=O)[O-])NCCSCc1ccc(CN(C)C)o1")
-0.5
>>> experimental_result("COc1ccc2[nH]c([S+]([O-])Cc3ncc(C)c(OC)c3C)nc2c1 (centres unmarked)")
2

Hi there! I need chromatographic logD for each item below, if you can.
1. c1ccc2ncccc2c1
2. c1ccc(-c2ccc(C(c3ccccc3)n3ccnc3)cc2)cc1 (centres unmarked)
3. COc1ccc([C@@H]2Sc3ccccc3N(CCN(C)C)C(=O)[C@@H]2OC(C)=O)cc1

1. 1.92
2. 5.09
3. 2

###

Test: Reference logDoct at pH 7.4: literature shake-flask or countercurrent data, shake-vial and pH-metric determinations, averaged
Conditions: Table 1, own shake-vial (Procedure A/B) and/or potentiometric determinations only
readout.type: logDoct

Hi there! I need logDoct for each item below, if you can.
1. NS(=O)(=O)c1cc2c(cc1Cl)NC(C(Cl)Cl)NS2(=O)=O (stereo not shown) [Trichlormethiazide]
2. Cc1ncc(-c2csc(N=C(N)N)n2)[nH]1 [Zaltidine]
3. CN/C(=N/CCSCc1nc[nH]c1C)NC#N [Cimetidine]
4. CNC(=C[N+](=O)[O-])NCCSCc1ccc(CN(C)C)o1 [Ranitidine]

0.43
0.74
0.35
−0.29

Hi there! I need logDoct for each item below, if you can.
1. CC(C)N(CCC(C(N)=O)(c1ccccc1)c1ccccn1)C(C)C (stereo not shown) [Disopyramide]
2. O=c1n(CCCN2CCN(c3cccc(Cl)c3)CC2)nc2ccccn12 [Trazodone]
3. COc1ccc([C@@H]2Sc3ccccc3N(CCN(C)C)C(=O)[C@@H]2OC(C)=O)cc1 [Diltiazem]
4. NS(=O)(=O)c1cc2c(cc1Cl)NC(C1CC3C=CC1C3)NS2(=O)=O (stereo not shown) [Cyclothiazide]
5. CNC(=NCCSCc1csc(N=C(N)N)n1)NC#N [Tiotidine]
6. CN1CCCC1c1cccnc1 (stereo not shown) [Nicotine]
7. CN1CCN(CC(=O)N2c3ccccc3C(=O)Nc3cccnc32)CC1 [Pirenzepine]
8. COc1ccc2c(c1)N(C[C@H](C)CN(C)C)c1ccccc1S2 [Methotrimeprazine]

1. −0.66
2. 2.54
3. 2.06
4. 2.09
5. 0.57
6. 0.40
7. −0.61
8. 2.77

Which logDoct value belongs to CCN(CC)CCNC(=O)c1cc(S(C)(=O)=O)ccc1OC [Tiapride] ?
−0.90

###

Settings: Table 1
readout.type: Res (logDoct − ElogDoct)
One number for each entry.

Here are 4 compounds together with their reported answers.
>>> experimental_result("C[C@]12CC[C@H]3[C@@H](CCC4=CC(=O)CC[C@@]43C)[C@@H]1CC[C@@H]2O")
0.12
>>> experimental_result("CC(=O)OCC(=O)[C@@]1(O)CC[C@H]2[C@@H]3CCC4=CC(=O)CC[C@]4(C)[C@H]3[C@@H](O)C[C@@]21C [Hydrocortisone-21 acetate]")
0.13
>>> experimental_result("Oc1cc(Cl)cc(Cl)c1")
"−0.40"
>>> experimental_result("Cc1nc2n(c(=O)c1CCN1CCC(c3noc4cc(F)ccc34)CC1)CCCC2")
0.45

Hi there! I need Res (logDoct − ElogDoct) for each item below, if you can.
1. O=C1CN=C(c2ccccn2)c2cc(Br)ccc2N1
2. COC(=O)[C@H]1[C@@H](OC(=O)c2ccccc2)C[C@@H]2CC[C@H]1N2C
3. CN1C(=O)C(O)N=C(c2ccccc2Cl)c2cc(Cl)ccc21 (stereo not shown)
4. CCCCNc1ccc(C(=O)OCCN(C)C)cc1
5. O=C1Nc2ccc(Cl)cc2C(c2ccccc2Cl)=NC1O (stereo not shown)
6. CC(=O)Nc1ccc(O)cc1

1: 0.27; 2: 0.57; 3: −0.05; 4: 0.17; 5: −0.29; 6: 0.13

Hi there! I need Res (logDoct − ElogDoct) for each item below, if you can.
1. Oc1cccc(Cl)c1
2. CSc1ncnc2c1ncn2[C@@H]1O[C@H](CO)[C@@H](O)[C@H]1O
3. COc1ccc2c3c1O[C@H]1[C@@H](O)C=C[C@H]4[C@@H](C2)N(C)CC[C@@]341

1. −0.61
2. −0.40
3. −0.16

###

Experiment: physchem
Conditions: pH 7.4
Where a name gives a salt, the structure may show the parent alone.
readout.type: chromatographic logD

Here are 4 molecules together with their reported answers.
>>> experimental_result("COCCc1ccc(OCC(O)CNC(C)C)cc1 (stereo not drawn)")
-0.62
>>> experimental_result("O=C(NCC1CCCCN1)c1cc(OCC(F)(F)F)ccc1OCC(F)(F)F (stereo not drawn) [Flecainide]")
0.49
>>> experimental_result("CCN(CC)CCNC(=O)c1cc(S(C)(=O)=O)ccc1OC [Tiapride]")
-0.45
>>> experimental_result("c1ccc2ccccc2c1")
3.62

Hi there! I need chromatographic logD for each item below, if you can.
1. CC(C)(C)NCC(O)c1cc(O)cc(O)c1 (stereo not drawn) [Terbutaline sulfate]
2. CN1CCN(C2=Nc3cc(Cl)ccc3Nc3ccccc32)CC1

1: -1.49; 2: 3.38

###

Settings: Table 1; capacity factor extrapolated to 0% methanol; average of three to five determinations; pH 7.4
Structures can show the parent of a compound that is named as a salt.
Each entry falls in a class defined on log k′w; the bands are small value: < 1; mid value: ≥ 1 and < 2; large value: ≥ 2

Field: example entries. Status: answers known.
>>> assigned_category("CN(C)CCOC(c1ccccc1)c1ccccc1 [Diphenhydramine]")
"mid value"
>>> assigned_category("CCN(CC)CCNC(=O)c1ccc(N)cc1 [Procainamide]")
"small value"
>>> assigned_category("c1ccc2ncccc2c1")
"mid value"
>>> assigned_category("Oc1cc(Cl)cc(Cl)c1")
"large value"
>>> assigned_category("O=C1Nc2ccc(Cl)cc2C(c2ccccc2Cl)=NC1O (stereo not drawn)")
"large value"

Would you mind sorting CCN(CC)CC(=O)Nc1c(C)cccc1C into the appropriate category?
small value

Try CCCCc1oc2ccccc2c1C(=O)c1cc(I)c(OCCN(CC)CC)c(I)c1 next.
large value

Try O=[N+]([O-])c1ccc(/C=N/O)o1 next.
mid value

Try CC(=O)CCCCn1c(=O)c2c(ncn2C)n(C)c1=O next.
small value

Try C[C@]12CC[C@H]3[C@@H](CCC4=CC(=O)CC[C@@]43C)[C@@H]1CC[C@@H]2O next.
large value

Try CC(C)(C)NCC(O)c1cc(O)cc(O)c1 (stereo not drawn) [Terbutaline sulfate] next.
small value

Try CN1C(=O)C(O)N=C(c2ccccc2Cl)c2cc(Cl)ccc21 (stereo not drawn) next.
large value

###

Conditions: Table 1; capacity factor extrapolated to 0% methanol; average of three to five determinations; pH 7.4
Simple rule here: log k′w less than 0.7 is yes, otherwise no.

Field: example entries. Status: answers known.
>>> assigned_category("CSc1ccc2c(c1)N(CCC1CCCCN1C)c1ccccc1S2 (stereo not shown)")
"no"
>>> assigned_category("O=C1CN=C(c2ccccn2)c2cc(Br)ccc2N1")
"no"
>>> assigned_category("c1ccc2ccccc2c1")
"no"
>>> assigned_category("CC(C)N(CCC(C(N)=O)(c1ccccc1)c1ccccn1)C(C)C (stereo not shown) [Disopyramide]")
"yes"

For this compound, is log k′w lower than 0.7? Oc1ncnc2[nH]ncc12
yes

Try Brc1cnc2ccccc2c1 next.
no

Try COc1ccc2c3c1O[C@H]1[C@@H](O)C=C[C@H]4[C@@H](C2)N(C)CC[C@@]341 next.
yes

Try COCCc1ccc(OCC(O)CNC(C)C)cc1 (stereo not shown) next.
yes

Try Oc1cccc(Cl)c1 next.
no

Try CN1CCN(CC(=O)N2c3ccccc3C(=O)Nc3cccnc32)CC1 [Pirenzepine] next.
yes

###

Answer each item with its documented log k′w.
Conditions: Table 1; capacity factor extrapolated to 0% methanol; average of three to five determinations; pH 7.4
Answers are plain numbers.

Here are 2 compounds together with their reported answers.
>>> experimental_result("CN(C)CCC(c1ccc(Cl)cc1)c1ccccn1 (stereo not drawn) [Chlorpheniramine]")
1.20
>>> experimental_result("c1ccc(-c2ccc(C(c3ccccc3)n3ccnc3)cc2)cc1 (stereo not drawn) [Bifonazole]")
4.33

API: the following record is the query input.
Which log k′w value belongs to CC(=O)Nc1ccc(O)cc1 [Acetominophen] ?
0.15
